Would you kindly list 384-well SCREEN Efficacy (%) for each of these compounds?
- experimental.target: CIB1 and αIIb interaction (GST-CIB1 : F-αIIb peptide) (Homo sapiens, UniProt Q99828)
- Construct: made in house; host or cells: BL-21 plus RIL cells (E. coli)
- Sequence (Q99828 1-191): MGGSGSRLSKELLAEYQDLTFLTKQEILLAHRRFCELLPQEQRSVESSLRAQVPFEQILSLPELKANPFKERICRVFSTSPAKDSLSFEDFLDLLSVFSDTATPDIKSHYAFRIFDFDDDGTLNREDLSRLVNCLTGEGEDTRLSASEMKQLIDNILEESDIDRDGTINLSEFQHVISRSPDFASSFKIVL
- method: FP assay, 384-well format (screen)
- Format: binding
- Parameters: concentration or dose not given beside the values
- settings: F-αIIb peptide
One number for each entry, in %.

O=C(O)C(F)(F)F.O=c1c2ccccc2nc2sc(NS(=O)(=O)c3ccc4c(c3)CCC4)nn12 [NCGC00187579-01] ... 43
Cc1ccc(S(=O)(=O)Nc2cnccc2C(=O)Nc2nc3ccccc3s2)cc1.O=C(O)C(F)(F)F [NCGC00343897-01] ... 30
CCC(=O)NC(c1cccs1)c1cc([N+](=O)[O-])c2cccnc2c1O (stereo not shown) [NCGC00182956-10] ... 23

# next compound below
Task item: Write down 384-well SCREEN Efficacy (%) measured for item CCOC(=O)N1CCN([N+]([O-])=NOc2ccc([N+](=O)[O-])cc2[N+](=O)[O-])CC1 [NCGC00165815-03]
Reply: 61

----------
Would you kindly list Curve Class for each of these compounds?
- experimental.target: CIB1 and αIIb interaction (CIB1-GST : F-αIIb peptide) (Homo sapiens, UniProt Q99828)
- Construct: made in house; host or cells: BL-21 plus RIL cells (E. coli)
- method: FP assay, 1536-well qHTS format (primary and confirmatory screen)
- Type: binding
- settings: qHTS primary screen hits, Table S2; negative sign = inhibitory curve
Answers are plain numbers.

// worked examples, Curve Class included
Cc1ccc(S(=O)(=O)Nc2cc([N+](=O)[O-])ccc2C(=O)Nc2nc(-c3ccccc3)cs2)cc1.O=C(O)C(F)(F)F ... -2.4
Cc1ccc(NS(=O)(=O)c2cc(Br)cc3c2NC(=O)CC3)cc1Cl.O=C(O)C(F)(F)F ... -2.2
CC(C)COc1ccc(-c2ccc(=O)n(CC(=O)NCCc3ccccc3)n2)cc1.O=C(O)C(F)(F)F ... -2.4
Cc1nc(C(=O)NCC(=O)O)c(O)c2ccc(Oc3ccccc3)cc12 ... -2.4

Hey, quick one: what's Curve Class for each of these?
1. Cc1cc(OCCCc2c(C(=O)O)n(Cc3cccnc3)c3c(-c4c(COc5ccc(N6CCN(S(C)(=O)=O)CC6)cc5)nn(C)c4C)cccc23)cc(C)c1Cl
2. COc1cccc(CNc2ccc(S(=O)(=O)Nc3nc(-c4ccccc4)cs3)cc2)c1O.O=C(O)C(F)(F)F

Reply:
-2.4
-2.4

Task item: Write down Curve Class measured for item O=C(O)c1ccccn1
Reply: -2.4

----------
- experimental.target: CIB1 and αIIb interaction (CIB1-GST : F-αIIb peptide) (Homo sapiens, UniProt Q99828)
- Construct: made in house; host or cells: BL-21 plus RIL cells (E. coli)
- method: FP assay, 1536-well qHTS format (primary and confirmatory screen)
- Format: binding
- settings: qHTS primary screen hits, Table S2; negative sign = inhibitory curve; several classes where COUNT > 1
Would you kindly list Curve Class for each of these compounds?
One number for each entry.

Cc1cc(SCc2sc(-c3ccc(Cl)c(Cl)c3)nc2C)ccc1OCc1nnn[nH]1.O=C(O)C(F)(F)F ... -1.2

Hey, quick one: what's Curve Class for each of these?
1. O=C(Cc1ccc(Cl)c(Cl)c1)Nc1ccc(S(=O)(=O)Nc2nnc(-c3ccccn3)s2)cc1.O=C(O)C(F)(F)F
2. C[N+](C)(C)CC(=O)O.[Cl-]
3. O=C(O)C(F)(F)F.O=C1CCCC2=C1C(c1n[nH]cc1Cl)NC(Nc1nc3ccccc3o1)=N2 (centres unmarked)
4. CN(C)CCc1c[nH]c2cccc(O)c12

Reply:
[-1.2, -2.4, -2.4, -2.3]

----------
- experimental.target: GST-CIB1 : F-scrambled peptide (Homo sapiens, UniProt Q99828)
- Construct: made in house; host or cells: BL-21 plus RIL cells (E. coli)
- method: FP scrambled-peptide counter screen, 384-well format
- Type: binding
- settings: F-scrambled peptide
Would you kindly list 384-well COUNTERSCREEN Efficacy (%) for each of these compounds?
Give bare numbers, in %.

Cc1ccc(S(=O)(=O)Nc2cnccc2C(=O)Nc2nc(-c3cccc(C)c3)cs2)cc1.O=C(O)C(F)(F)F ... 60
Nc1c(Cc2ccc(S(N)(=O)=O)cc2)c(-c2cccc(-c3ccccc3)c2)nn1-c1nc(C(=O)O)cs1.O=C(O)C(F)(F)F ... 34
O=C(O)C(F)(F)F.O=S(=O)(Nc1nc2n(n1)C(c1ccccc1)C=C(c1ccc(Cl)cc1)N2)c1ccccc1 (stereo not drawn) ... 80
O=C(Cc1ccc(Cl)c(Cl)c1)Nc1ccc(S(=O)(=O)Nc2nnc(-c3ccccn3)s2)cc1.O=C(O)C(F)(F)F ... 38
OCCN(CCO)c1nc(N2CCCCC2)c2nc(N(CCO)CCO)nc(N3CCCCC3)c2n1 ... 200

Task item: Write down 384-well COUNTERSCREEN Efficacy (%) measured for item Cc1nc(N=Nc2cc(S(=O)(=O)O)c3cc([N+](=O)[O-])cc(S(=O)(=O)O)c3c2)c(COP(=O)(O)O)c(C=O)c1O (stereo in doubt)
Reply: 70

----------
- experimental.target: CIB1 and αIIb interaction (CIB1-GST : F-αIIb peptide) (Homo sapiens, UniProt Q99828)
- Construct: made in house; host or cells: BL-21 plus RIL cells (E. coli)
- method: FP assay, 1536-well qHTS format (primary and confirmatory screen)
- Format: binding
- settings: qHTS primary screen hits, Table S2; negative sign = inhibitory curve; several classes where COUNT > 1
Would you kindly list Curve Class for each of these compounds?
Answers are plain numbers.

Hey, quick one: what's Curve Class for each of these?
1. Cc1c(C)c2c(c(C)c1OC(=O)CCC(=O)OCCO)CC[C@@](C)(CCC[C@H](C)CCC[C@H](C)CCCC(C)C)O2
2. Cc1ccc2nc3sc(C(=O)NCc4ccco4)cc3cc2c1.O=C(O)C(F)(F)F
3. O=C([O-])c1c(Cl)c(Cl)c(Cl)c(Cl)c1-c1c2cc(I)c(=O)c(I)c-2oc2c(I)c(O)c(I)cc12.[Na+]
4. CN(C)c1cnc2c(O)cccc2c1.O=C(O)C(F)(F)F
5. O=C(O)C(F)(F)F.O=C1CC(c2c(F)cccc2F)c2sc(N3CCOCC3)nc2N1 (stereo not shown)
6. CCCC(=O)OC[C@@H](OC(=O)CCC)[C@@H](OC(=O)CCC)[C@H](Cn1c2nc(=O)[nH]c(=O)c-2nc2cc(C)c(C)cc21)OC(=O)CCC

Reply:
[-3, -1.4, -2.4, -2.2, -2.4, -1.1]

Task item: Write down Curve Class measured for item Cc1ccc(OCCn2c(CCNC(=O)c3ccsc3)nc3ccccc32)cc1.O=C(O)C(F)(F)F
Reply: -1.4

----------
- experimental.target: GST-CIB1 : F-scrambled peptide (Homo sapiens, UniProt Q99828)
- Construct: made in house; host or cells: BL-21 plus RIL cells (E. coli)
- method: FP scrambled-peptide counter screen, 1536-well format
- Format: binding
- settings: counterscreen
Is Efficacy (%) (counterscreen) at least -50%? Then Met. If not, Not met.

NC(=O)c1ccc(Cc2c(-c3cccc(-c4ccccc4)c3)nn(-c3nc(C(=O)O)cs3)c2O)cc1.O=C(O)C(F)(F)F ... Not met
CCN(CC)CCN(Cc1ccc(-c2ccc(C(F)(F)F)cc2)cc1)C(=O)Cn1c(SCc2ccc(F)cc2)nc(=O)c2c1CCC2 ... Met
FC(F)(F)c1cccc(N2CCN(C(=S)Nc3nccc4cccnc34)CC2)c1.O=C(O)C(F)(F)F ... Met
Cc1cc2nc3ccc(N(C)C)cc3[s+]c2cc1N.Cl.[Cl-] ... Not met
NC[C@@H](O)c1ccc(O)c(O)c1.O=C(O)C(O)C(O)C(=O)O ... Met

Task item: Is reported Efficacy (%) (counterscreen) greater than or equal to -50% here: Cl.Nc1cc(C(F)(F)F)ccc1S
Reply: Met

Task item: Is reported Efficacy (%) (counterscreen) greater than or equal to -50% here: O=C1c2cccc(O)c2C(=O)c2c(O)cccc21
Reply: Met

----------
Would you kindly list pIC50 for each of these molecules?
- experimental.target: CIB1 and αIIb interaction (CIB1-GST : F-αIIb peptide) (Homo sapiens, UniProt Q99828)
- Construct: made in house; host or cells: BL-21 plus RIL cells (E. coli)
- method: FP assay, 1536-well qHTS format (primary and confirmatory screen)
- Format: binding
- settings: qHTS primary screen hits, Table S2; read-out: IC50
Give bare numbers, as −log10 of the molar value.

// worked examples, pIC50 included
CC1(C)N=C(Nc2nc3ccccc3o2)NC2=C1C(=O)CCC2.O=C(O)C(F)(F)F [NCGC00187643-01] ... 4.70
CC[C@]1(O)CC[C@H]2[C@@H]3CCC4=CCCC[C@@H]4[C@H]3CC[C@@]21C [NCGC00167514-02] ... 4.50
Cc1cc(NS(=O)(=O)c2ccc(Nc3nc(-c4ccc(C)c(C)c4)cs3)cc2)no1.O=C(O)C(F)(F)F [NCGC00249742-01] ... 4.35
CC(O)C(=O)O.CCOc1ccc2nc3cc(N)ccc3c(N)c2c1.O [NCGC00096056-02] ... 4.35
CC(C)c1nc(Nc2nc3ccccc3o2)nc2c1CCCC2.O=C(O)C(F)(F)F [NCGC00188040-01] ... 5.20

Hey, quick one: what's pIC50 for each of these?
1. Cc1c2c(=O)n(-c3ccccc3)[nH]c2cc(=O)n1CCc1ccccc1.O=C(O)C(F)(F)F [NCGC00248471-01]
2. N#Cc1ccc(NS(=O)(=O)c2ccc(NC(=O)Cc3ccc(F)c(Cl)c3)cc2)cc1.O=C(O)C(F)(F)F [NCGC00343891-01]

Reply:
1. 4.30
2. 5.40

FYI, the data here is from paper PMC11249646.
